For each entry below, report its stoichiometry N value.
Target: the molecule itself
Assay: dynamic light scattering
Numbers only.

protein	stoichiometry N
AGT WT p.S81A (enzyme, human) MASHKLLVTPPKALLKPLSIPNQLLLGPGPSNLPPRIMAAGGLQMIGSMSKDMYQIMDEIKEGIQYVFQTRNPLTLVISGAGHCALEAALVNVLEPGDSFLVGANGIWGQRAVDIGERIGARVHPMTKDPGGHYTLQEVEEGLAQHKPVLLFLTHGESSTGVLQPLDGFGELCHRYKCLLLVDSVASLGGTPLYMDRQGIDILYSGSQKALNAPPGTSLISFSDKAKKKMYSRKTKPFSFYLDIKWLANFWGCDDQPRMYHHTIPVISLYSLRESLALIAEQGLENSWRQHREAAAYLHGRLQALGLQLFVKDPALRLPTVTTVAVPAGYDWRDIVSYVIDHFDIEIMGGLGPSTGKVLRIGLLGCNATRENVDRVTEALRAALQHCPKKKL	2

# context switch: different protein, same stoichiometry N
Given the protein AGT LM-p.G170R (enzyme, human) MASHKLLVTPLKALLKPLSIPNQLLLGPGPSNLPPRIMAAGGLQMIGSMSKDMYQIMDEIKEGIQYVFQTRNPLTLVISGSGHCALEAALVNVLEPGDSFLVGANGIWGQRAVDIGERIGARVHPMTKDPGGHYTLQEVEEGLAQHKPVLLFLTHGESSTGVLQPLDGFRELCHRYKCLLLVDSVASLGGTPLYMDRQGIDILYSGSQKALNAPPGTSLISFSDKAKKKMYSRKTKPFSFYLDIKWLANFWGCDDQPRMYHHTIPVISLYSLRESLALIAEQGLENSWRQHREAAAYLHGRLQALGLQLFVKDPALRLPTVTTVAVPAGYDWRDIVSYVMDHFDIEIMGGLGPSTGKVLRIGLLGCNATRENVDRVTEALRAALQHCPKKKL , write its reported stoichiometry N. 2
